- SYSTEM: T1, Cyno ST2-fc (cyno; human, UniProt A0A2K5UDB8 19-331)
- T1 construct: also called cyno ST2 fused with a human IgG1 Fc tag at the C-terminus
- T1 sequence: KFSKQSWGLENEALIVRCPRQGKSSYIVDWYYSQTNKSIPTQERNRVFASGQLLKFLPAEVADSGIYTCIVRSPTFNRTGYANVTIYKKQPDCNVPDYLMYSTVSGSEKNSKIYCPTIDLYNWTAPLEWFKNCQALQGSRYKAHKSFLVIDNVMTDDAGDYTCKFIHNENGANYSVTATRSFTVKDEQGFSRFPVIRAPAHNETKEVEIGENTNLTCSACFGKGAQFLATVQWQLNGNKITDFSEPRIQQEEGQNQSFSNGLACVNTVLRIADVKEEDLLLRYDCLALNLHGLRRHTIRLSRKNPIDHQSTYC
- ASSAY_COMMENT: SPR Biacore X100, antibody on CM5, cyno ST2-fc analyte
- Description: The experiment on the interactions between the anti-human ST2 antibodies and cyno ST2-fc was performed using Biacore X100, and was carried out at 25° C. in HBS-EP (1×) buffer (pH 7.4). Each antibody was immobilized on the surface of CM5 chip using an amino coupling kit. […] Association was monitored for 2 min and dissociation for 10 min, and the sensor surface was regenerated by injecting a solution of glycine at pH 1.5.

BINDER	koff
5888-153H1+L2 (antibody, V domains shown, murine antibody) VH: QVQLQQSGAELVRPGASVTLSCKASGYTFTDYELHWVKQTPVHGLEWIGTIDPETGDTVYNQKFKAKAILTADKSSSTAYMEFRSLTSEDSAVCYCTRAFYNDYDDGFAYWGQGTLVTVSA VL: QIVMTQTPAIMSASPGEKVTMTCSVSSSVSYMHWYQQKSGTSPKRWIYDTSKLASGVPARFSGSGSGTSYSLTINNMEAEDAATYYCQQWNSSPLTFGAGTKLELK	0.00139 s⁻¹
5886-156H+L (antibody, V domains shown, murine antibody) VH: DVQLQQSGPGLVKPSQSLSLTCTVTGYSITSDYAWNWIRQFPGNKLEWMGYIDYSGSTTYNPSLKSRFSITRDTSKNQFFLQLNSVTTEDTATYYCASTVIDSMDYWGQGTSVTVSS VL: DIVLTQSPASLAVSLGQRATISCRASKSVSTSGHSYMHWYQQKPGQPPKLLIYLASNLESGVPARFSGSGSGTDFTLNINPMEEEDAATYYCQHSREFPFTFGSGTKLEIK	0.000747 s⁻¹
